# test.system: c-Src SH2;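 note: peptide library displayed on the E. coli surface as eCPX fusions, selected cells deep-sequenced, score is each peptide's frequency after selection divided by its frequency in the input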
# method.notes: SH2 binding enrichment of the phosphorylated peptide, bacterial display (enrichment ratio); higher = better substrate or ligand; peptides without Tyr show the background
Task for the reader: assign each of the following sequences its reported SH2 binding enrichment.

VCRHNYGVVES [HLA-DRB1_Y112_Y107V]: 1.13
VHNLDYYKETT [FGFR3_Y647_K650E]: 0.564
MAPQMYEFHLP [NCAPD2_Y6]: 0.411
RISRKYKKVRF [F8_Y442_G439S]: 0.391
FRDALYKSMVD [PHEX_Y250_F252S_YF]: 0.516
FPKARYRWLVL [APTX_Y214_H215R_YF]: 0.575
GDFLSYREFHL [ERBIN_Y1107_S1112L_YF]: 0.556
TRVMEYISCLD [CLTCL1_Y1043_R1046C]: 0.545

Next sequence, SH2 binding enrichment to be filled in.
State, in one line, measured SH2 binding enrichment of RVEDAYILTCN [CCT6A_Y229] 0.671

---

# System: AncSZ
# method.notes: phosphorylation enrichment, bacterial display (enrichment ratio); higher = better substrate or ligand; peptides without Tyr show the background
Using phosphorylation enrichment as the sorting value, the categories are range 1: < 0.8; range 2: ≥ 0.8 and < 1; range 3: ≥ 1

IEEGTYGVAYR [CDK11B_Y449_V452A]: range 3
CTTIHYNSMCN [TP53_Y234_Y236S]: range 2
LASSEYPVQRR [GALK1_Y236_R239Q]: range 1
GHGRFYMKEAI [PGM1_Y66_D62H]: range 1
NTGGFYDLFGG [PTPN11_Y63_D61G_YF]: range 3
SCTFTYLLGDR [ETHE1_Y38]: range 3
DNAFQYMLTDR [MYH7_Y164_YF]: range 2
EEGNPYFSSTR [MCCC2_Y520_A524T_YF]: range 2
DAASNYARGHY [TUBA3E_Y103]: range 1
CCKNRYDKDKP [THAP1_Y14_G9C]: range 1

Which class holds DEEDFYQGSME [ASCC1_Y36] ? range 3

Which class holds QLAPQYTYTQG [FLNA_Y1761_A1764T] ? range 2

Which class holds VDTAMYATMQR [TPO_Y55] ? range 1

Which class holds QKNVSYVSRVS [TASOR_Y1043_T1046R] ? range 3

Which class holds GRRNTCFASIA [ACADM_Y352_Y352C_YF] ? range 1

Which class holds IFGEEYEEQPR [ZMYM2_Y1033_V1028I] ? range 3

Which class holds LLVVVYKFRCF [PSEN1_Y154_L153V_YF] ? range 2

Which class holds VPDTNYTSDEE [STK33_Y439_A437T] ? range 3

Which class holds ESMQSYDLDFP [UNC13B_Y243_D238E_YF] ? range 2

Which class holds KGKLIYLLRDS [NXPE1_Y350_G353R] ? range 1

Which class holds QEALEYFMKQI [PIK3CA_Y1038_M1043I] ? range 3

Which class holds LEISPYMLSGP [LRRK2_Y1718_R1723P] ? range 3

---

# System: c-Abl (mouse)
# method.notes: phosphorylation enrichment, bacterial display (enrichment ratio); higher = better substrate or ligand; peptides without Tyr show the background
measured.endpoint: phosphorylation enrichment
Give bare numbers.

Answered examples (3):
KLKRSYCSPDI [USP8_Y717_S718C]: 0.534
ALAHKYHGGGG [HBB_Y146]: 0.534
FPKARYRWLVL [APTX_Y214_H215R_YF]: 0.534

# batch: return phosphorylation enrichment for each of the 6 sequences below
1. SPFEVYVDKSQ [FLNA_Y373]
2. KIIRRYVSSEG [ANK2_Y3907]
3. VHYLVYHHHHH [CACNA1H_Y519_H516Y]
4. RLDRSYSFSFS [PEAR1_Y890_YF]
5. YTDPYYDYEIE [ZC3H18_Y372_A368T]
6. DHKRQYELLKL [KIF4B_Y684_R680H]

[0.581, 0.416, 1.4, 0.593, 0.871, 0.511]

# batch: return phosphorylation enrichment for each of the 3 sequences below
1. EEQKRYFNAMK [SCN5A_Y1494_K1493R_YF]
2. KMGNEYVTKGQ [MYH7_Y410_V406M]
3. NKYTTYLPWLP [C9orf24_Y126_R129W]

1. 0.446
2. 0.326
3. 1.94
